- target.or.system: UniProt O42275
- Sequence (O42275 whole entry): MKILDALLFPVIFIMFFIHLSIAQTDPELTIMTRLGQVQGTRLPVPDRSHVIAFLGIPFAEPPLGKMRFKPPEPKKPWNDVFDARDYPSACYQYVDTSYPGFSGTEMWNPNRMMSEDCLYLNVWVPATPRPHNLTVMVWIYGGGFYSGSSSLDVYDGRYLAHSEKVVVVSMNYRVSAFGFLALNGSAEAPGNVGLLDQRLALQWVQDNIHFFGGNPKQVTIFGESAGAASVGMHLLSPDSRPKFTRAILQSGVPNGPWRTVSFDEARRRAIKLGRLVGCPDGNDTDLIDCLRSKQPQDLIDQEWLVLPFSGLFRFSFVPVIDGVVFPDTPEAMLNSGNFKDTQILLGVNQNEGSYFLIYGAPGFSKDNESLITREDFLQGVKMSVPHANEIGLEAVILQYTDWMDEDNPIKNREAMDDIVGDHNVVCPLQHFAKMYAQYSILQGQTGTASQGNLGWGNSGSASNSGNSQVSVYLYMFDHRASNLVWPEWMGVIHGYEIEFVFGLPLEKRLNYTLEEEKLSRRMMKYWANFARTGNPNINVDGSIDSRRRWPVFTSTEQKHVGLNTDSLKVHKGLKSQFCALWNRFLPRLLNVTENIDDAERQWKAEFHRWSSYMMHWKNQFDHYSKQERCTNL
Overview of recorded IC50 for various compounds
Please state the figure in nM; there is no need to write the unit.

Some compounds with known IC50 results, for comparison:
INSERT INTO assay_data (mol_smiles, target_or_system, property_label, measured_value) VALUES
  ('CCN(CC)c1ccc(/C=C2\Cc3cc(OC)c(OCCN4CCCCC4)cc3C2=O)cc1', 'UniProt O42275', 'IC50', 14.8),
  ('COc1cc2c(cc1OCCNC1CCCCC1)C(=O)/C(=C/c1ccc(N(C)C)cc1)C2', 'UniProt O42275', 'IC50', 102),
  ('COc1cc2c(cc1OCCCNC1CCCCC1)C(=O)/C(=C/c1ccc(N(C)C)cc1)C2', 'UniProt O42275', 'IC50', 1540);

(Q) # return recorded IC50 for entry "CCN(CC)c1ccc(/C=C2\Cc3cc(OC)c(OCCCN4CCCCC4)cc3C2=O)cc1"
(A) 371

(Q) Specify IC50 for "CCCN(CCC)c1ccc(/C=C2\Cc3cc(OC)c(OCCN4CCCCC4)cc3C2=O)cc1" and stop.
(A) 14.6

(Q) Give the reported value of IC50 for this record: "COc1cc2c(cc1OCCCN1CCCCC1)C(=O)/C(=C/c1ccc(N(C)C)cc1)C2"
(A) 330
